Study system: T1, EGFRvIII target antigen (SPR ligand) (UniProt P00533 25-645, limits assumed)
T1 construct: also called EGFRvIII antigen
Method description: SPR; antibody as analyte
This listing pairs binders with measured kon.

Here's what some known entries look like.
- Binder: "humanized antibody 28-H8 (84C3G8H7-VH3 + VL2(PTM)) (scFv, the format in the SPR assay is not clearly stated) scFv: QVQLVQSGAEVKKPGASVKVSCKASGFNIKDYYMHWVRQAPGQRLEWIGWIDPENGNTIYDPKFQGRATITADTSASTAYMELSSLRSEDTAVYYCARGWFAYWGQGTLVTVSSGGGGSGGGGSGGGGSGGGGSDIVMTQSPDSLAVSLGERATINCKSSQSLLNSSNQKNHLAWYQQKPGQPPKLLVYFASTRGSGVPDRFSGSGSGTDFTLTISSLQAEDVAVYFCQQHYSTPLTFGGGTKLELK"
  kon: "142000 M⁻¹ s⁻¹"
- Binder: "humanized antibody 28-H5 (84C3G8H7-VH4 + VL1) (scFv, the format in the SPR assay is not clearly stated) scFv: QVQLVQSGAEVKKPGASVKVSCKASGFNIKDYYMHWVKQAPGQRLEWIGWIDPENGNTIYDPKFQGRATITADTSANTAYMELSSLRSEDTAVYYCARGWFAYWGQGTLVTVSSGGGGSGGGGSGGGGSGGGGSDIVMTQSPDSLAVSLGERATINCKSSQSLLNSSNQKNHLAWYQQKPGQPPKLLIYFASTRASGVPDRFSGSGSGTDFTLTISSLQAEDVAVYYCQQHYSTPLTFGGGTKLELK"
  kon: "111000 M⁻¹ s⁻¹"
- Binder: "humanized antibody 28-H3 (84C3G8H7-VH3 + VL1) (scFv, the format in the SPR assay is not clearly stated) scFv: QVQLVQSGAEVKKPGASVKVSCKASGFNIKDYYMHWVRQAPGQRLEWIGWIDPENGNTIYDPKFQGRATITADTSASTAYMELSSLRSEDTAVYYCARGWFAYWGQGTLVTVSSGGGGSGGGGSGGGGSGGGGSDIVMTQSPDSLAVSLGERATINCKSSQSLLNSSNQKNHLAWYQQKPGQPPKLLIYFASTRASGVPDRFSGSGSGTDFTLTISSLQAEDVAVYYCQQHYSTPLTFGGGTKLELK"
  kon: "132000 M⁻¹ s⁻¹"

Look up kon for this binder: humanized antibody 28-H7 (84C3G8H7-VH3 + VL1(PTM)) (scFv, the format in the SPR assay is not clearly stated) scFv: QVQLVQSGAEVKKPGASVKVSCKASGFNIKDYYMHWVRQAPGQRLEWIGWIDPENGNTIYDPKFQGRATITADTSASTAYMELSSLRSEDTAVYYCARGWFAYWGQGTLVTVSSGGGGSGGGGSGGGGSGGGGSDIVMTQSPDSLAVSLGERATINCKSSQSLLNSSNQKNHLAWYQQKPGQPPKLLIYFASTRGSGVPDRFSGSGSGTDFTLTISSLQAEDVAVYYCQQHYSTPLTFGGGTKLELK
146000 M⁻¹ s⁻¹
